Measured values drawn from patent US10392368B2 for this set.

Listing: Ki of selected compounds
Target: JAK3 (Homo sapiens)
Sequence (P52333 whole entry): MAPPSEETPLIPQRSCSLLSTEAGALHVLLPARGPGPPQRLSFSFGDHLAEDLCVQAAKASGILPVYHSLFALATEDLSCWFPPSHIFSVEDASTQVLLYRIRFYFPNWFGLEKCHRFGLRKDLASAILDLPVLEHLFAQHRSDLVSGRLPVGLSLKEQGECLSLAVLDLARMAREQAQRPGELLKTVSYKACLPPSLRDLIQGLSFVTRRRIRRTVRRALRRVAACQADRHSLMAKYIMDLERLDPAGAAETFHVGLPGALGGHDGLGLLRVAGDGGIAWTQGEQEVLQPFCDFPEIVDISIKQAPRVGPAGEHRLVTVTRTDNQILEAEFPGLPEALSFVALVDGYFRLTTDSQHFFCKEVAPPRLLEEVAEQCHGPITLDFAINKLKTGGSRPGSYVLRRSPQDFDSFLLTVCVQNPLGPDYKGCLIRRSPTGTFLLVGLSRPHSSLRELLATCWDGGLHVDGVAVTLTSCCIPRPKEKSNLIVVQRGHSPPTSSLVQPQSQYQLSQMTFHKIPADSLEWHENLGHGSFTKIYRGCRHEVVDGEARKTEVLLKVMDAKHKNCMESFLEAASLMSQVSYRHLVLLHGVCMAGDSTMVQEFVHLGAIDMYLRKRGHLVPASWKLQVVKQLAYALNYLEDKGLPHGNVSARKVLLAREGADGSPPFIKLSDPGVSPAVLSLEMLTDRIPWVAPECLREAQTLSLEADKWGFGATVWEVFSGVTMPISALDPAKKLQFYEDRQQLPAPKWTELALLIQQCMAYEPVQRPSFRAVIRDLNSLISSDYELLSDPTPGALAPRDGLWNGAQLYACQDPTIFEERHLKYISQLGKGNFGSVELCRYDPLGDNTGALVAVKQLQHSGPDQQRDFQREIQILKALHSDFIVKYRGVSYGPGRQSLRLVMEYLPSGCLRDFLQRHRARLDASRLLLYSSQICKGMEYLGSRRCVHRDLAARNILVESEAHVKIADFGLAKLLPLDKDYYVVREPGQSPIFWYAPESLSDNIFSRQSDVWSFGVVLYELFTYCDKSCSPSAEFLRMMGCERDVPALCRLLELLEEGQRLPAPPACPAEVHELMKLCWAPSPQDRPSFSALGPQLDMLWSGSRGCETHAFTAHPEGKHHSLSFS
Assay: Biochemical JAK3 kinase assay (LanthaScreen)
Design: GST; purchased Life Technologies
Conditions: read-out: JAK 3 (pKi) (converted)
quantity measured: Ki

• C=CC(=O)N1CC(CSc2cc(-c3ccc(O)cc3)cc3[nH]ncc23)C1 [Compound 12-34] = 100 to 1000 pM
• C=CC(=O)N1CCC(C)(Oc2cc(-c3ccc(O)cc3)cc3[nH]ncc23)CC1 [Compound 6-3] = 100 to 1000 pM
• COC(CN(C)C/C=C/C(=O)N1CC(COc2cc(-c3ccc(O)cc3)cc3[nH]ncc23)C1)OC [Compound 3-121] = 100 to 1000 pM
• C=CC(=O)N1CC(F)(COc2cc(-c3ccc(O)c(F)c3)cc3[nH]ncc23)C1 [Compound 3-41] = 100 to 1000 pM
• O=C(/C=C/CN1CCSCC1)N1CC(COc2cc(-c3ccc(O)cc3)cc3[nH]ncc23)C1 [Compound 3-130] = 100 to 1000 pM
• CCC1(COc2cc(-c3ccc(O)c(Cl)c3)cc3[nH]ncc23)CN(C(=O)/C=C/CN(C)C)C1 [Compound 3-15] = < 100 pM
• C=CC(=O)N1CCC(S(=O)(=O)c2cc(-c3ccc(O)cc3)cc3[nH]ncc23)CC1 [Compound 12-8] = 100 to 1000 pM
• C=CC(=O)N1CC(F)(C(=O)Nc2cc(-c3ccc(O)cc3)cc3[nH]ncc23)C1 [Compound 12-48] = 100 to 1000 pM
• C=CC(=O)N1CC(COc2nc(-c3ccc(O)c(F)c3)cc3[nH]ncc23)C1 [Compound 3-37] = < 100 pM
• C=CC(=O)N1C[C@@H](Oc2cc(-c3ccc(O)cc3)nc3[nH]ncc23)C[C@H]1C [Compound 1-26] = < 100 pM

###

System: IL-2 stimulated pSTAT5 in Tall-1 T cells
Experiment: Cellular JAK3 potency assay: inhibition of IL-2 stimulated pSTAT5 in Tall-1 T cells
Type: cell-based, human
Conditions: Homo sapiens, TALL-1, IL-2 stimulated pSTAT5 in Tall-1 T cells; read-out: Tall-1 (pIC50) (converted)
Listing: IC50 of selected compounds
quantity measured: IC50

• CN(C)C/C=C/C(=O)N1CC[C@H](Oc2cc(-c3ccc(O)c(Cl)c3)cc3[nH]ncc23)C1 [Compound 1-3] = 31.6 to 200 nM
• CN(C)C/C=C/C(=O)N1CC(C)(COc2cc(-c3ccc(O)c(Cl)c3)cc3[nH]ncc23)C1 [Compound 3-9] = 31.6 to 200 nM
• C=CC(=O)N1C[C@@H](Oc2cc(-c3ccc(O)cc3)cc3[nH]ncc23)C[C@@H]1C [Compound 1-12] = 31.6 to 200 nM
• C=CC(=O)N1CC[C@H](Oc2cc(-c3ccc(O)c(F)c3)nc3[nH]nc(C)c23)C1 [Compound 1-33] = 31.6 to 200 nM
• CSC1CCN(C/C=C/C(=O)N2CC(COc3cc(-c4ccc(O)cc4)cc4[nH]ncc34)C2)CC1 [Compound 3-131] = < 31.6 nM
• C=CC(=O)N1CC(COc2cc(-c3ccc(O)c(OC)c3)cc3[nH]ncc23)C1 [Compound 3-83] = < 31.6 nM
• C#CC(=O)N1CC[C@H](Oc2cc(-c3ccc(O)cc3)cc3[nH]ncc23)C1 [Compound 17] = 200 to 1000 nM
• C=CC(=O)N1CC[C@H](Oc2cc(-c3cc(F)c(O)cc3F)cc3[nH]nc(C)c23)C1 [Compound 1-30] = 31.6 to 200 nM
• O=C(/C=C/CN1CCCC1)N1CC(COc2cc(-c3ccc(O)cc3)cc3[nH]ncc23)C1 [Compound 3-124] = 31.6 to 200 nM
• C=CC(=O)N1CCC(Cc2cc(-c3ccc(O)cc3)cc3[nH]ncc23)CC1 [Compound 14] = 31.6 to 200 nM

###

Biological target: JAK2 (Homo sapiens, UniProt O60674)
Construct: GST; purchased Life Technologies
Sequence (O60674 whole entry): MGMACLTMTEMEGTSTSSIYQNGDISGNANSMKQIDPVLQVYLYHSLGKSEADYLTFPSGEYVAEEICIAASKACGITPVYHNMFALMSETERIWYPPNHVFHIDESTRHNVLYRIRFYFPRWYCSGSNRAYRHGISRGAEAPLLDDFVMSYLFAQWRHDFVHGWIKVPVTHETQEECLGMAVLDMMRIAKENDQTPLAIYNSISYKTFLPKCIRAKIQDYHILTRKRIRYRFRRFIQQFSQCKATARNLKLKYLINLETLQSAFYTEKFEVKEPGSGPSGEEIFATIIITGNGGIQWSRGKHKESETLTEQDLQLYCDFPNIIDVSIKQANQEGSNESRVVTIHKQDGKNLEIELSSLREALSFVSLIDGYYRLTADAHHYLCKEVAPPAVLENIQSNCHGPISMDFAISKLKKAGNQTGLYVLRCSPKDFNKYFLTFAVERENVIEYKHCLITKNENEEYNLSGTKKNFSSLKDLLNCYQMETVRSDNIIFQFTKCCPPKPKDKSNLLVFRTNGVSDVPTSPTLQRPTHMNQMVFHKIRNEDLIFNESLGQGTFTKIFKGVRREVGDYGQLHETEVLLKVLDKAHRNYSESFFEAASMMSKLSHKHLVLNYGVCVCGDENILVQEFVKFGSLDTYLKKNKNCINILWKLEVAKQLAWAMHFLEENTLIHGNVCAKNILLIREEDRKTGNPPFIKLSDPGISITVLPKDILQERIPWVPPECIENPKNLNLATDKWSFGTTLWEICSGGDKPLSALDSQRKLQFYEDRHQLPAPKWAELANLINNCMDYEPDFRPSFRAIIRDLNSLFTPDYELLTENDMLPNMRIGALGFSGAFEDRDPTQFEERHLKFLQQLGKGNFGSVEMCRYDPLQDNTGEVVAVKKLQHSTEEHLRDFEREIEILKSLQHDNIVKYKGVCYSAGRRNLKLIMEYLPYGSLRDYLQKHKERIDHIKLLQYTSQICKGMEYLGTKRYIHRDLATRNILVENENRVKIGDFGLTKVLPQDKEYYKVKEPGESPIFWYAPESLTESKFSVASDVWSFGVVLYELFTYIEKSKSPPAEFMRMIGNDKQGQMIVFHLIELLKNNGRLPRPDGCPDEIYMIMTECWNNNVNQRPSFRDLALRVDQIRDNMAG
Test: Biochemical JAK2 kinase assay (LanthaScreen)
Conditions: read-out: JAK 2 (pKi) (converted)
quantity measured: Ki

* COCCN(C)C/C=C/C(=O)N1CC(COc2cc(-c3ccc(O)cc3)cc3[nH]ncc23)C1 [Compound 3-119] | 10 to 100 nM
* C=CC(=O)N1CC(COc2nc(-c3ccc(O)c(Cl)c3)cc3[nH]ncc23)C1 [Compound 3-35] | > 100 nM
* C=CC(=O)N1CC(F)(COc2nc(-c3ccc(O)c(F)c3)cc3[nH]ncc23)C1 [Compound 3-49] | 10 to 100 nM
* C=CC(=O)N1CC(C(=O)Nc2cc(-c3ccc(O)cc3)cc3[nH]ncc23)C1 [Compound 12-46] | 10 to 100 nM
* C=CC(=O)N1CC[C@H](COc2cc(-c3ccc(O)cc3)cc3[nH]nnc23)C1 [Compound 23] | 10 to 100 nM
* C=CC(=O)N1CC(F)(C(=O)Nc2cc(-c3ccc(O)cc3)cc3[nH]ncc23)C1 [Compound 12-48] | > 100 nM
* CN(C)C/C=C/C(=O)N1CC(COc2cc(-c3ccc(O)cc3)cc3[nH]ncc23)C1 [Compound 1] | 10 to 100 nM
* C=CC(=O)N1CCO[C@@H](C(=O)Nc2cc(-c3ccc(O)cc3)cc3[nH]ncc23)C1 [Compound 6] | 10 to 100 nM
* C=CC(=O)N1CC[C@H](Oc2cc(-c3ccc(O)cc3)cc3[nH]ncc23)C[C@@H]1C [Compound 12-31] | 1 to 10 nM
* C=CC(=O)N1CC(F)(COc2cc(-c3ccc(O)c(F)c3)cc3[nH]ncc23)C1 [Compound 3-41] | 1 to 10 nM

###

Listing: Ki of selected molecules
Target: JAK1 (Homo sapiens, UniProt P23458)
Construct: GST; purchased Life Technologies
Sequence (P23458 whole entry): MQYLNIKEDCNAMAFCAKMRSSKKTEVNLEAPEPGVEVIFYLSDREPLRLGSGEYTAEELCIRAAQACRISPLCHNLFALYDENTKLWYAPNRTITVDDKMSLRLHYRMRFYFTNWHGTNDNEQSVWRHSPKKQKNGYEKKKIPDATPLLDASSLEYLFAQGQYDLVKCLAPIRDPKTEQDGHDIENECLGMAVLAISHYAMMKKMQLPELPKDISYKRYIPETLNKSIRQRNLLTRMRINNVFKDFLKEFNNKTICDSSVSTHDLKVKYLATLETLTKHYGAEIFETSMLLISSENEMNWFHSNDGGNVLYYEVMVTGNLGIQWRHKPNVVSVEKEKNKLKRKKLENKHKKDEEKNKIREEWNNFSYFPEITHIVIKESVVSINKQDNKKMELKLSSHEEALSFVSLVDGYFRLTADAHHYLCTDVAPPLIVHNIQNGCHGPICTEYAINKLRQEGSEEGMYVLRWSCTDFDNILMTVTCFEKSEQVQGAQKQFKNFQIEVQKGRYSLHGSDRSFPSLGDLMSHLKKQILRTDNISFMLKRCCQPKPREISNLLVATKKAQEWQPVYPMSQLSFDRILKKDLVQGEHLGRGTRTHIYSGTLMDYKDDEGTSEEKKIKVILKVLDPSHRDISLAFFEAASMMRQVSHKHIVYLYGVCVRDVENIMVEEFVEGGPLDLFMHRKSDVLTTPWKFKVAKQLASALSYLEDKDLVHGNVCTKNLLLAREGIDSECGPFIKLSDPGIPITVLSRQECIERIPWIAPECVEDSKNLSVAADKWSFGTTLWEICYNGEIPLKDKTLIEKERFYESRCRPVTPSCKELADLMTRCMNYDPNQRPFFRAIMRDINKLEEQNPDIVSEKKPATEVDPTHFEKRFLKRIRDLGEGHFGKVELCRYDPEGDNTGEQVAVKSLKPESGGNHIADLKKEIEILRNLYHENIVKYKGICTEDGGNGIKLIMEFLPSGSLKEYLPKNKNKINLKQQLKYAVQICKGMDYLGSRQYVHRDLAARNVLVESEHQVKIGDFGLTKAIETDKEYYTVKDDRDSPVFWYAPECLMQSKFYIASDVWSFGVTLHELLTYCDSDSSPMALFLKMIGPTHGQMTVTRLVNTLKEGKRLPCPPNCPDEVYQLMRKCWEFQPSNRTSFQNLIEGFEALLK
Test: Biochemical JAK1 kinase assay (LanthaScreen)
Conditions: read-out: JAK 1 (pKi) (converted)
Description: A panel of four LanthaScreen JAK biochemical assays (JAK1, 2, 3 and Tyk2) were carried in a common kinase reaction buffer (50 mM HEPES, pH 7.5, 0.01% Brij-35, 10 mM MgCl2, and 1 mM EGTA). […] Serially or discretely diluted compounds were pre-incubated with each of the four JAK enzymes and the substrate in white 384-well microplates (Corning) at ambient temperature for 1 h. […] The plates were allowed to incubate at ambient temperature for 1 h before being read on the EnVision reader (Perkin Elmer). […]
quantity measured: Ki

- C=CC(=O)N1CC[C@H](COc2cc(-c3ccc(O)cc3)cc3[nH]nnc23)C1: > 100 nM
- C[C@@H]1C[C@H](Oc2cc(-c3ccc(O)cc3)cc3[nH]ncc23)CN1C(=O)/C=C/CN(C)C: > 100 nM
- C=CC(=O)N1CC(COc2cc(-c3ccc(O)cc3)cc3[nH]nc(N(C)C)c23)C1: > 100 nM
- C=CC(=O)N1CCC(Oc2cc(-c3ccc(O)cc3)cc3[nH]ncc23)C(F)(F)C1 (centres unmarked): 10 to 100 nM
- C=CC(=O)N1CC(COc2cc(-c3ccc(O)cc3)cc3[nH]ncc23)C1: > 100 nM
- C=C(CN(C)C)C(=O)N1CC(COc2nc(-c3ccc(O)cc3)nc3[nH]ncc23)C1: > 100 nM
- C=CC(=O)N1CCC(Oc2cc(-c3ccc(O)c(F)c3)cc3[nH]ncc23)CC1: 10 to 100 nM
- CN(C)C/C=C/C(=O)N1CCC(Oc2cc(-c3ccc(O)cc3)cc3[nH]ncc23)CC1: 10 to 100 nM
- C=CC(=O)N1CC(CC)(COc2nc(-c3ccc(O)c(F)c3)nc3[nH]ncc23)C1: > 100 nM
- CN(C)C/C=C/C(=O)N1CC2(CCC2Oc2cc(-c3ccc(O)cc3)cc3[nH]ncc23)C1 (centres unmarked): > 100 nM
- CN(C)C/C=C/C(=O)N1CC2(CC(Oc3cc(-c4ccc(O)cc4)cc4[nH]ncc34)C2)C1: 10 to 100 nM
- C=CC(=O)N1CCC(C)(Oc2cc(-c3ccc(O)c(F)c3)cc3[nH]ncc23)CC1: > 100 nM
- C=CC(=O)N1CC[C@H]1COc1cc(-c2ccc(O)cc2)cc2[nH]ncc12: > 100 nM
- CN(C)C/C=C/C(=O)N1CC(C#N)(COc2cc(-c3ccc(O)c(F)c3)cc3[nH]ncc23)C1: > 100 nM

###

Listing: Ki of selected compounds
Target: JAK2 (Homo sapiens, UniProt O60674)
Construct: GST; purchased Life Technologies
Assay: Biochemical JAK2 kinase assay (LanthaScreen)
Settings: read-out: JAK 2 (pKi) (converted)
quantity measured: Ki

- C=CC(=O)N1CC[C@H](COc2cc(-c3ccc(O)cc3)cc3[nH]ncc23)C1: 10 to 100 nM
- C=CC(=O)N1CC[C@H](Oc2cc(-c3ccc(O)cc3)cc3[nH]nc(NC)c23)C1: > 100 nM
- COCCN(C/C=C/C(=O)N1CC(COc2cc(-c3ccc(O)cc3)cc3[nH]ncc23)C1)CCOC: 10 to 100 nM
- CN(C)C/C=C/C(=O)N1CC(COc2cc(-c3ccc(O)c(F)c3)cc3[nH]ncc23)C1: 10 to 100 nM
- C[C@@H]1C[C@H](Oc2cc(-c3ccc(O)cc3)cc3[nH]ncc23)CCN1C(=O)/C=C/CN(C)C: 1 to 10 nM
- CN(C)C/C=C/C(=O)N1CC(C(C)(C)Oc2cc(-c3ccc(O)c(Cl)c3)cc3[nH]ncc23)C1: > 100 nM
- C=CC(=O)N1CC(COc2cc(-c3ccc(O)cc3)cc3[nH]nc(C(F)(F)F)c23)C1: 10 to 100 nM
- C=CC(=O)N1CC(COc2nc(-c3ccc(O)cc3)nc3[nH]ncc23)C1: > 100 nM
- C=CC(=O)N1CCC(Sc2cc(-c3ccc(O)cc3)cc3[nH]ncc23)CC1: > 100 nM
- C=CC(=O)N1CC(Sc2cc(-c3ccc(O)cc3)cc3[nH]ncc23)C1: > 100 nM
- C=CC(=O)N1CC(F)(COc2nc(-c3ccc(O)cc3)nc3[nH]ncc23)C1: > 100 nM
- COC1(COc2cc(-c3ccc(O)c(Cl)c3)cc3[nH]ncc23)CN(C(=O)/C=C/CN(C)C)C1: > 100 nM
